Test system: TNF α-production of LPS-stimulated blood cells
Experiment: TNF-α production of lipopolysaccharide-stimulated human blood
Format: cell-based
Details: undiluted blood; read-out: TNFα* b: Inhibition of TNF α-production of LPS-stimulated blood cells
Experimental Endpoint: IC50 (nM)
Please give a number only; it is taken to be in nM.

Input: Given the compound `C[C@@H]1C[C@H]2[C@@H]3C[C@H](F)C4=CC(=O)C=C[C@]4(C)[C@@]3(F)[C@@H](O)C[C@]2(C)[C@@]1(OC(=O)C(Cl)Cl)C(=O)OCF` , write its reported IC50.
Output: 4.5

Input: Given the compound `C[C@H]1C[C@H]2[C@@H]3CCC4=CC(=O)C=C[C@]4(C)[C@@]3(F)[C@@H](O)C[C@]2(C)[C@@]1(OC(=O)C(Cl)Cl)C(=O)OCCO` , write its reported IC50.
Output: 5.8

Input: Given the compound `C[C@@H]1C[C@H]2[C@@H]3C[C@H](F)C4=CC(=O)C=C[C@]4(C)[C@@]3(F)[C@@H](O)C[C@]2(C)[C@@]1(OC(=O)C(Cl)Cl)C(=O)SCF` , write its reported IC50.
Output: 3

Input: Given the compound `C[C@H]1C[C@H]2[C@@H]3C[C@H](F)C4=CC(=O)C=C[C@]4(C)[C@@]3(F)[C@@H](O)C[C@]2(C)[C@@]1(OC(=O)C(Cl)Cl)C(=O)OCCO` , write its reported IC50.
Output: 3.7

Input: Given the compound `C[C@H]1C[C@H]2[C@@H]3C[C@H](F)C4=CC(=O)C=C[C@]4(C)[C@@]3(F)[C@@H](O)C[C@]2(C)[C@@]1(OC(=O)C(Cl)Cl)C(=O)OCCl` , write its reported IC50.
Output: 5.1
